Source listed as ChEMBL document CHEMBL2385032.

System: LOX IMVI
Experiment: Cytotoxicity against human LOXIMVI cells
Format: functional
readout.type: GI50 (µM)
All answers are understood in µM, so give the number only.

The compound "C=C1C(=O)C[C@H](OC(C)=O)[C@@]2(C)[C@@H](OC(C)=O)[C@H](OC(=O)c3ccccc3)C3=C(C)[C@@H](OC(=O)[C@H](O)[C@@H](NC(=O)OC(C)(C)C)c4ccccc4)C[C@@]3(C(C)(C)O)[C@@H](OC(C)=O)[C@H]12" , tested on LOX IMVI, showed GI50 of 1.7

The compound "CC(=O)O[C@H]1C(=O)[C@@]2(C)[C@H]([C@H](OC(=O)c3ccccc3)[C@]3(O)C[C@H](OC(=O)[C@H](O)[C@@H](NC(=O)c4ccccc4)c4ccccc4)C(C)=C1C3(C)C)[C@]1(OC(C)=O)CO[C@@H]1C[C@@H]2O" , tested on LOX IMVI, showed GI50 of 0.016

The compound "C=C1C(=O)C[C@H](OC(C)=O)[C@@]2(C)[C@@H](OC(C)=O)[C@H](OC(=O)c3ccccc3)C3=C(C)[C@@H](OC(=O)[C@H](O)[C@@H](NC(=O)c4ccccc4)c4ccccc4)C[C@@]3(C(C)(C)O)[C@@H](OC(C)=O)[C@H]12" , tested on LOX IMVI, showed GI50 of 1.86

The compound "C=C1C(=O)C=C[C@@]2(C)[C@@H](OC(C)=O)[C@H](OC(=O)c3ccccc3)C3=C(C)[C@@H](OC(=O)[C@H](O)[C@@H](NC(=O)OC(C)(C)C)c4ccccc4)C[C@@]3(C(C)(C)O)[C@@H](OC(C)=O)[C@H]12" , tested on LOX IMVI, showed GI50 of 2.2

====

Test system: NCI-H322M
Experiment: Cytotoxicity against human NCI-H322M cells
Type: functional
Provide the recorded GI50 for the entries that follow.
All answers are understood in µM, so give the number only.

For record "C=C1C(=O)C[C@H](OC(C)=O)[C@@]2(C)[C@@H](OC(C)=O)[C@H](OC(=O)c3ccccc3)C3=C(C)[C@@H](OC(=O)[C@H](O)[C@@H](NC(=O)OC(C)(C)C)c4ccccc4)C[C@@]3(C(C)(C)O)[C@@H](OC(C)=O)[C@H]12" the listed GI50 is 18.8

For record "C=C1C(=O)C=C[C@@]2(C)[C@@H](OC(C)=O)[C@H](OC(=O)c3ccccc3)C3=C(C)[C@@H](OC(=O)[C@H](O)[C@@H](NC(=O)c4ccccc4)c4ccccc4)C[C@@]3(C(C)(C)O)[C@@H](OC(C)=O)[C@H]12" the listed GI50 is 4.69

For record "C=C1C(=O)C[C@H](OC(C)=O)[C@@]2(C)[C@@H](OC(C)=O)[C@H](OC(=O)c3ccccc3)C3=C(C)[C@@H](OC(=O)[C@H](O)[C@@H](NC(=O)c4ccccc4)c4ccccc4)C[C@@]3(C(C)(C)O)[C@@H](OC(C)=O)[C@H]12" the listed GI50 is 18.5

For record "CC(=O)O[C@H]1C(=O)[C@@]2(C)[C@H]([C@H](OC(=O)c3ccccc3)[C@]3(O)C[C@H](OC(=O)[C@H](O)[C@@H](NC(=O)c4ccccc4)c4ccccc4)C(C)=C1C3(C)C)[C@]1(OC(C)=O)CO[C@@H]1C[C@@H]2O" the listed GI50 is 0.05

For record C=C1C(=O)O[C@@H]2C3O[C@]3(C)CC/C=C(\C)CC[C@@H]12 (stereo partly drawn) the listed GI50 is 19.9

For record "C=C1C(=O)C=C[C@@]2(C)[C@@H](OC(C)=O)[C@H](OC(=O)c3ccccc3)C3=C(C)[C@@H](OC(=O)[C@H](O)[C@@H](NC(=O)OC(C)(C)C)c4ccccc4)C[C@@]3(C(C)(C)O)[C@@H](OC(C)=O)[C@H]12" the listed GI50 is 24.6

For record "CC(=O)O[C@H]1C[C@H]2OC[C@@]2(OC(C)=O)[C@H]2[C@H](OC(C)=O)[C@]3(C(C)(C)O)C[C@H](OC(=O)[C@H](O)[C@@H](NC(=O)OC(C)(C)C)c4ccccc4)C(C)=C3[C@@H](OC(=O)c3ccccc3)[C@H](OC(C)=O)[C@]12C" the listed GI50 is 50.1
